system: RXF 393 renal; experiment: NCI-60 one-dose screen, 48 h (100 = growth as untreated, 0 = no growth, -100 = all killed); conditions: 10 µM unless noted
Compounds without any hit were thinned out: in the full panel of roughly 83,000, 20% have a hit.
Tick rule met if growth is 40% or greater. Tick rule not met if growth is less than 40%.

Use these answered entries as a reference point.
CC(C)c1ccc2c(c1)CCC1C2CCCC1(C)NCc1ccccc1 (stereo not given)
rule met
C[C@@H]1N=C(c2ccc3ccccc3c2)Nc2nc3ccccn3c2C1=O
rule met
CN1CCCN(CCNc2nccc(-c3c(-c4cccc(O)c4)nc4sccn34)n2)S1(=O)=O
rule met
O=C(/C=C/c1ccccc1)c1c[nH]c2ccccc2c1=O
rule not met

Then this molecule:
(Q) State whether the measured growth reaches 40%, counting equality as reaching it, for O=C1/C(=C/c2cc(F)cc(F)c2)Cc2cc(F)cc(F)c21
(A) rule met

Data origin: PubChem BioAssay (NCI)
